Data credit: ChEMBL document CHEMBL1201862

- Tested on: U-251
- protocol-summary: NCI tumour cell line growth inhibition, 48 h
Calls of active or inactive are those of the source. No stated cut-off is given here; in the data, active = GI50 up to about 1.1 µM and inactive = higher.
Returns: one label drawn from active, inactive

COC(=O)/C=C/c1ccc2c(c1)CCC2; inactive
COc1ccc(CC2(Cc3ccc(OC)cc3)CCOC2=O)cc1; inactive
COC(=O)C1=C(C(=O)OC)SC2(S1)C1=C(CCC1)SC(C(=O)OC)=C2C(=O)OC; inactive

Q) Call for entry `CC1=NN(C(=O)c2ccccc2O)C(=O)/C1=C/c1ccc([N+](=O)[O-])cc1` :
A) active

Q) Also check NC(CCC(=O)O)C(=O)NC(Cc1ccc(N(CCCl)CCCl)cc1)C(=O)O (configuration not stated)
A) inactive

Q) Can you handle `Fc1ccc(Nc2nnc(-c3ccccn3)s2)cc1` next?
A) inactive

Q) Follow-up entry: CC1CCC2C(C)C(=O)OC2C2(C)C(=O)C=CC12 (configuration not stated)
A) inactive

Q) Same again, this time with `O=C(c1ccco1)c1ccccc1C(=O)c1ccco1`
A) inactive

* * *

Item-by-item account of GI50
- Test system: HOP-62
- protocol-summary: NCI tumour cell line growth inhibition, 48 h
Active and inactive are the calls of the source. Cut-off read from the data, not from the text of the source: active = GI50 up to about 1.1 µM and inactive = higher.

CCOC(=O)/C(C(N)=O)=C(O)/C(O)=C(\Br)C(=O)c1ccccc1; 20.5 µM (inactive)
CCOC(=O)C(Cc1ccc([N+](=O)[O-])cc1)NC(=O)CC1c2ccccc2-c2ccccc21 (centres undefined); 35.2 µM (inactive)
CC12c3ccccc3C(OC=O)(c3ccccc31)C1(C)c3ccccc3C2(OC=O)c2ccccc21; 48.5 µM (inactive)

Here is the next item to consider.
Q) Which GI50 reading was recorded for the molecule `O=C(NCCc1ccccc1)[C@H]1CCCC[C@@H]1CCO` ?
A) > 100 µM (inactive)

* * *

- Test system: KM12
- protocol-summary: NCI tumour cell line growth inhibition, 48 h
Active and inactive are the calls of the source. No stated cut-off is given here; in the data, active = GI50 up to about 1.1 µM and inactive = higher.
Quick reference for GI50 among some compounds

COC(=O)[C@]1(c2ccc(N(C)C)cc2OC)C[C@@H]2CCCN(CCc3c1[nH]c1ccccc31)C2; 23.1 µM (inactive)
COC1OC(C(C)O)C2OC(C)(C)OC12 (configuration not stated); > 100 µM (inactive)
COC1=C2CC(C)CC(OC)C(O)C(C)/C=C(\C)C(OC(N)=O)C(OC)/C=C\C=C(/C)C(=O)NC(=C(/C=N/N3CCCCC3)C1=O)C2=O (configuration not stated); 11.6 µM (inactive)
CCOC(=O)/C(=C/c1ccco1)P(=O)(OCC)OCC; > 100 µM (inactive)
CCOC(=O)C1N(S(=O)(=O)c2ccc(C)cc2)CCC12C(c1ccc(OC)cc1)NC1CCCCC12 (configuration not stated); > 100 µM (inactive)

Q) May I ask what GI50 has been recorded for `CCOC(=O)/C(=C\c1ccc[nH]1)C(=O)c1ccccc1` ?
A) 65.9 µM (inactive)

Q) And COC(=O)C(C/C=C(\C)c1ccccc1)C(C)=O (configuration not stated) ?
A) 58.2 µM (inactive)

Q) Next record, please: `c1ccc2c(c1)[nH]c1c2cc[n+]2cc3c(cc12)CCCC3`
A) 1.7 µM (inactive)

* * *

- Tested on: K562
- protocol-summary: NCI tumour cell line growth inhibition, 48 h
The source made the active and inactive calls. Cut-off read from the data, not from the text of the source: active = GI50 up to about 1.1 µM and inactive = higher.
Answer with one of the outcomes true (1) for active, false (0) for inactive

CC1C=CN(N(C)C)C2=C1C(=O)c1cnccc1C2=O (stereo unspecified); true (1)

Q) Query: recorded result category for COC(CN(C(=O)c1ccccc1)C1CCC2(SCCS2)c2[nH]c3ccccc3c21)OC (stereo unspecified) in this test
A) false (0)

* * *

- Tested on: RXF 393
- protocol-summary: NCI tumour cell line growth inhibition, 48 h
Calls of active or inactive are those of the source. Rule as the data show it: active = GI50 up to about 1.1 µM and inactive = higher.
Below, each entry is listed alongside its reported GI50.

Some solved cases for reference:
COC(=O)C1=C(C(=O)OC)SC2(S1)C1=C(CCC1)SC(C(=O)OC)=C2C(=O)OC; 4.62 µM (inactive)
CCOC(=O)c1c(-c2ccc(OC)cc2)c(C#N)c(=S)n(C2OC(CO)C(O)C(O)C2O)c1-c1ccccc1 (stereo not given); 26.2 µM (inactive)
O=c1c2cc([N+](=O)[O-])ccc2sc2ccsc12; > 100 µM (inactive)
COc1ccc(-c2nc(-c3cnccn3)n(COCCO)n2)cc1; > 100 µM (inactive)

Q) Item `Cc1cccc(C)c1NC(=O)CCc1nnc(S)[nH]1` has what recorded GI50?
A) > 100 µM (inactive)

Q) # repeat for `Cc1ccc(Nc2ncnc3sc(SCc4ccccc4)nc23)cc1`
A) 84.9 µM (inactive)

Q) Follow-up entry: `CC/C(=N\NC(=O)c1cccnc1)c1ccc2c(c1)OCCO2`
A) > 100 µM (inactive)

Q) What would you report for `O=c1cc(N2CCOCC2)[nH]c(=O)n1-c1ccc(F)cc1` ?
A) > 100 µM (inactive)

Q) Moving on to CC12Oc3ccc4ccccc4c3C1c1c(ccc3ccccc13)O2 (stereo not given)
A) > 100 µM (inactive)

Q) For Cc1c(CNc2ccc(C(=O)NC(CC(=O)O)C(=O)O)cc2)ccc2nc(N)nc(N)c12 (stereo not given) then?
A) 5.04 µM (inactive)

Q) One more molecule: CCCC1NC(=O)C(CC(C)C)NC(=O)c2cccc(n2)C(=O)NC(CC(C)C)C(=O)NC(CCC)C(=O)NC(C(=O)OC)CCCCNC1=O (stereo not given)
A) 31.8 µM (inactive)

Q) What about this molecule? `CN1CN(c2ccccc2)C2(CCN(Cc3nc4ccccc4s3)CC2)C1=O`
A) 14.6 µM (inactive)

Q) Try O=C1Sc2ccccc2C(=O)N2CCSC12 (stereo not given) next.
A) > 100 µM (inactive)

Q) Please give the result for `C#CCNC(=O)ON1C(=O)CCC1=O` too.
A) > 100 µM (inactive)

Q) // same read-out, input: CCOC(=O)C(O)(NC(C)=O)C(F)(F)F (stereo not given)
A) > 100 µM (inactive)

* * *

- Test system: SK-MEL-28
- protocol-summary: NCI tumour cell line growth inhibition, 48 h
Activity calls are given as the source filed them. Rule as the data show it: active = GI50 up to about 1.1 µM and inactive = higher.
# Lookup of reported GI50 keyed by entry

CC1(C)O[C@H]2Cn3c(c(C#N)c4ccccc43)[C@H]2O1; > 100 µM (inactive)
Cc1ccc(NC(=O)C2C(=O)N(c3ccc(C)c(C)c3)C(=O)/C2=N\NC(N)=O)cc1C (stereo unspecified); > 100 µM (inactive)
COC(=O)C(C/C=C(\C)c1ccccc1)C(C)=O (stereo unspecified); > 100 µM (inactive)
COc1cc2c(c(OC)c1)/C(=C/Sc1ccccc1)C(=O)N(C(C)(C)C)C2; 38.9 µM (inactive)
CCC(C)NC1=C(NC(C)=O)C(=O)c2ccccc2C1=O (stereo unspecified); > 75 µM (inactive)

In the following, a different molecule is considered.
Q) What GI50 value was documented for this molecule, CC(C)C1OC2(C)OC(=N)C1(C#N)C(C#N)(C#N)C2C (stereo unspecified) ?
A) 37.1 µM (inactive)

* * *

- System: IGROV-1
- protocol-summary: NCI tumour cell line growth inhibition, 48 h
Activity calls are given as the source filed them. Rule as the data show it: active = GI50 up to about 1.1 µM and inactive = higher.
Your answer must be one of the following: true for active, false for inactive

Field: example entries. Status: answers known.
COc1cc(C2C(Cl)C(=O)N2NC(=O)c2ccc(NC(C)=O)cc2)cc(Br)c1O (stereo not given); false
OC1c2ccccc2C2(O)C1C(c1ccccc1)C(c1ccccc1)C2(O)c1ccccc1 (stereo not given); false
O=C(NN1C(=O)/C(=C/c2ccc(Cl)cc2)N=C1c1ccccc1)c1c(Cl)c(Cl)c(Cl)c(Cl)c1-c1nc2ccccc2[nH]1; false
Nc1ccc(-c2nc3ccccc3s2)cc1; false

Q) What is the recorded call for this molecule in the test? C=CCN1C(=O)/C(=C/c2ccco2)N=C1SC1OC(COC(C)=O)C(OC(C)=O)C(OC(C)=O)C1OC(C)=O (stereo not given)
A) false

Q) Would you kindly repeat that for C/C(=N\NC(=N)N)C(CN1CCCCC1)C(c1ccccc1)c1c(O)c2ccccc2oc1=O (stereo not given) ?
A) false

Q) How about `O=C(Nc1cccc(O)c1)C(=O)C1C(=O)NC(=S)NC1=O` ?
A) false

Q) Then this molecule: `O=C1OC(c2ccco2)=N/C1=C\c1ccc(Cl)c(Cl)c1`
A) false

Q) Try the molecule N=C1NC(c2ccc(Cl)cc2)=CC(c2cccc(Cl)c2)S1 (stereo not given)
A) false

Q) Do the same for `CCCCC1=NNC(=O)C1` please
A) false

* * *

- System: K562
- protocol-summary: NCI tumour cell line growth inhibition, 48 h
Calls of active or inactive are those of the source. Cut-off read from the data, not from the text of the source: active = GI50 up to about 1.1 µM and inactive = higher.
attribute-measured: GI50

Known GI50 results, listed for orientation:
CCOC(=O)C1=C(C(C)=O)CSC(c2ccccc2)=N1; > 100 µM (inactive)
S=c1[nH]nc(Cn2c3ccc(Br)cc3c3nc4ccccc4nc32)n1C1CCCCC1; 25.9 µM (inactive)
Cc1cc2c(C)nn(Cc3ccccc3)c2c(C(N)=O)c1C; > 100 µM (inactive)

Let's switch to this molecule now.
Q) I am curious: what GI50 value has been reported for `CN(C)/C=C/c1nnnn1-c1ccc(I)cc1` ?
A) 19 µM (inactive)
